Where these numbers come from: a melting point compilation (Tetko et al.; mined from patent text by program, amines drawn as free bases though some values may be those of a salt)

Measurement name: melting point

>  <Molecule>
CCC(=O)Nc1ccc(C2=NNC(=O)C3CC23)cc1 (stereo not given)

>  <Measurement>
268 to 270 °C

$$$$
>  <Molecule>
Cn1c(Cl)c(Cl)c(C(=O)c2cc(C(C)(C)C)c(O)c(C(C)(C)C)c2)c1Cl

>  <Measurement>
155 to 156 °C

$$$$

Look at this molecule and give its reported melting point. CC(=O)Nc1ccc(OCCN2CC=C(c3ccc(F)cc3)CC2)cc1 96 to 98 °C

What about this molecule? Nc1cc2nc(-c3ccccc3)nn2cc1F > 250 °C

What about this molecule? CCOc1ccc(S(=O)(=O)N[C@H](CCCN2C(=O)c3ccccc3C2=O)C(=O)O)cc1 151 to 152 °C

What about this molecule? Cc1c(C(=O)NC2(C(=O)O)Cc3cccc(Br)c3C2)oc2cc(-c3ccc(Cl)cc3)ccc12 (stereo not given) 230 °C
